experimental.target: RNase H of HBV polymerase (HBV-RNase H) (Hepatitis B virus ayw/France/Tiollais/1979, UniProt P03156)
Construct: amylose/maltose step implies MBP fusion
Sequence (P03156 680-832): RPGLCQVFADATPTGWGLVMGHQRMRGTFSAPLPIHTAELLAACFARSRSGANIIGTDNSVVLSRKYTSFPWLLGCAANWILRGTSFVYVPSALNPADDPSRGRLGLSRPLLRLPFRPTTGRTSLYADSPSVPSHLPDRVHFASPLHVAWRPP
test.name: inhibitory effects against RNase H activity of HBV polymerase
Type: biochemical
run.conditions: 0.1 μg/ml; read-out: Inhibitory effect of HBV-RNase H
Description: Experiment 2: The inhibitory effects against RNase H activity of HBV polymerase. 1) Expression of the RNase H domain derived from human HBV polymerase […] The RNase H activity was measured by using recombinant RNase H enzyme and radiolabled RNA/DNA hybrid. […] The supernatant was obtained and the radioactive signal of supernatant was measured by scintillation counter. […]
measurement.type: inhibition at 0.1 µg/mL
Could you kindly put the unit after your number?

Noted for CC(C)Nc1cccnc1N1CCN(C(=O)c2ccc(C(=O)N(C)CC3OCCO3)cc2)CC1 : its inhibition at 0.1 µg/mL reads 56%

Noted for CC(C)Nc1cccnc1N1CCN(C(=O)c2ccc(C(=O)NC(CO)CO)cc2)CC1 : its inhibition at 0.1 µg/mL reads 41%

Noted for CC(C)Nc1cccnc1N1CCN(C(=O)c2ccc(C(=O)N3CCNCC3)cc2)CC1 : its inhibition at 0.1 µg/mL reads 38%

Noted for CCN(CCO)C(=O)c1ccc(C(=O)N2CCN(c3ncccc3NC(C)C)CC2)cc1 : its inhibition at 0.1 µg/mL reads 55%

Noted for CC(C)Nc1cccnc1N1CCN(C(=O)c2ccc(C(=O)N(CCO)CCO)cc2)CC1 : its inhibition at 0.1 µg/mL reads 86%
